These data points were gathered from ChEMBL document CHEMBL1201862.

Kindly state GI50 for each of the entries shown.
Tested on: UACC-62
Experiment: NCI tumour cell line growth inhibition, 48 h
Calls of active or inactive are those of the source. Rule as the data show it: active = GI50 up to about 1.1 µM and inactive = higher.

[[record]]
compound = "CC1=Nc2ccccc2S(=O)(=O)N1"
tgt = "UACC-62"
reported_metric = "GI50"
assay_value = "> 100 µM (inactive)"

[[record]]
compound = "Cc1nc(O)nc(N/N=C/c2c3ccccc3c(Cl)c3ccccc23)c1C(=O)Nc1ccc(Cl)cc1"
tgt = "UACC-62"
reported_metric = "GI50"
assay_value = "50.5 µM (inactive)"

[[record]]
compound = "COc1nc2c(c(O)c(C)c(=O)n2OC2OC(COC(C)=O)C(OC(C)=O)C(OC(C)=O)C2OC(C)=O)c(=O)n1C (centres undefined)"
tgt = "UACC-62"
reported_metric = "GI50"
assay_value = "> 100 µM (inactive)"

[[record]]
compound = "COc1cc2c3c(c1O)-c1c(ccc(OC)c1OC)CC3N(C)CC2 (centres undefined)"
tgt = "UACC-62"
reported_metric = "GI50"
assay_value = "> 100 µM (inactive)"

[[record]]
compound = "CCO[C@]12C[C@H](OC)[C@@]3(O)CC(C1[C@H]3O)C13C4C2[C@H](OC)C1[C@](COC)(CN4CC)[C@H](O)C[C@@H]3OC (some centres undefined)"
tgt = "UACC-62"
reported_metric = "GI50"
assay_value = "> 100 µM (inactive)"

[[record]]
compound = "O=C1NC(=S)NC(=O)C1=Cc1cccc2cc3ccccc3cc12"
tgt = "UACC-62"
reported_metric = "GI50"
assay_value = "1.87 µM (inactive)"

[[record]]
compound = "NCCCOc1ccc([N+](=O)[O-])cc1Cl"
tgt = "UACC-62"
reported_metric = "GI50"
assay_value = "> 100 µM (inactive)"

[[record]]
compound = "CC1=Nc2ccccc2/C1=C\\c1c(C)[nH]c2ccccc12"
tgt = "UACC-62"
reported_metric = "GI50"
assay_value = "5.26 µM (inactive)"


Proceed to the following item.
I am curious: what GI50 value has been reported for CC(=O)OCC1OC(n2c(C)c(C(C)=O)c(-c3cccc4ccccc34)c(C#N)c2=S)C(OC(C)=O)C(OC(C)=O)C1OC(C)=O (centres undefined) ?
> 100 µM (inactive)
